System: Staphylococcus aureus MW2 (mecA+)
method_notes: IC50 (growth, competition assay)
cond: fluorescent label: DsRed; cefoxitin: subinhibitory
pIC50: −log10 of the molar value. Where a name gives a salt, the structure may show the parent alone.
pIC50 for assorted molecules
observed_property: pIC50

molecule	observed_property	inequality_operator	numeric_value
OCCN1CCN(CC/C=C2/c3ccccc3Sc3ccc(C(F)(F)F)cc32)CC1 [cis-(Z)-Flupenthixol dihydrochloride]	pIC50	=	4.46
COc1ncc(-c2ccc3nccc(-c4ccnnc4)c3c2)cc1NS(=O)(=O)c1ccc(F)cc1F	pIC50	>	5.01
CCCCCCCCCCCCCCCC[N+](C)(C)C	pIC50	>	5.01
Cc1onc(-c2ccccc2Cl)c1C(=O)N[C@@H]1C(=O)N2[C@@H]1SC(C)(C)[C@@H]2C(=O)O [Cloxacillin sodium]	pIC50	>	5.01
O=C(O)Cc1cccc(OCCCN(Cc2cccc(C(F)(F)F)c2Cl)CC(c2ccccc2)c2ccccc2)c1 [GW3965 HCl]	pIC50	>	5.01
O=C(/C=C/c1ccc(O)c(O)c1)OCCc1ccccc1	pIC50	=	4.24
Cc1ccc(Sc2ccccc2N2CCNCC2)c(C)c1	pIC50	=	4.36
CO[C@H]1/C=C/O[C@@]2(C)Oc3c(C)c(O)c4c(O)c(c5c(nc6cc(C)ccn65)c4c3C2=O)NC(=O)/C(C)=C\C=C\[C@H](C)[C@H](O)[C@@H](C)[C@@H](O)[C@@H](C)[C@H](OC(C)=O)[C@@H]1C [XIFAXAN]	pIC50	>	5.01
NCCOB(c1ccccc1)c1ccccc1	pIC50	=	4.59
Nc1ccn([C@@H]2O[C@H](CO)[C@@H](O)C2(F)F)c(=O)n1 [Gemcitabine hydrochloride]	pIC50	>	5.01
CC1(C)C(=O)N(CCN2CCC(C(=O)c3ccc(F)cc3)CC2)c2ccccc21	pIC50	=	4.41
CO/N=C(\C(=O)N[C@@H]1C(=O)N2C(C(=O)O)=C(COC(N)=O)CS[C@H]12)c1ccco1	pIC50	=	4.67
N=C(N)c1ccc(OCCCCCOc2ccc(C(=N)N)cc2)cc1 [Pentamidine HCl]	pIC50	=	4.43
CCCCCCCCCCCCCCCCOP(=O)([O-])OCC[N+](C)(C)C [MILTEX]	pIC50	=	4.45
Clc1ccc(C(Cn2ccnc2)OCc2ccsc2Cl)c(Cl)c1 (centres undefined) [VAGISTAT]	pIC50	=	4.53
CN1CCN(c2cc3c(cc2F)c(=O)c(C(=O)O)cn3-c2ccc(F)cc2)CC1	pIC50	>	5.01
CC(C)(C)C#Cc1cc(N(C(=O)[C@H]2CC[C@H](C)CC2)[C@H]2CC[C@H](O)CC2)c(C(=O)O)s1	pIC50	=	4.59
CSc1nc2cc(Cl)c(Oc3cccc(Cl)c3Cl)cc2[nH]1	pIC50	=	4.84
CC[C@H]1OC(=O)[C@H](C)[C@@H](O[C@H]2C[C@@](C)(OC)[C@@H](O)[C@H](C)O2)[C@H](C)[C@@H](O[C@@H]2O[C@H](C)C[C@H](N(C)C)[C@H]2O)[C@](C)(O)C[C@@H](C)/C(=N\OCOCCOC)[C@H](C)[C@@H](O)[C@]1(C)O [Roxithromycin (Roxl-150)]	pIC50	=	5.37
O=c1[nH]c(=O)n([C@H]2C[C@H](O)[C@@H](CO)O2)cc1F [FLOXURIDINE]	pIC50	>	5.01
CN[C@H](CC(C)C)C(=O)N[C@H]1C(=O)N[C@@H](CC(N)=O)C(=O)N[C@H]2C(=O)N[C@H]3C(=O)N[C@H](C(=O)N[C@H](C(=O)O)c4cc(O)cc(O)c4-c4cc3ccc4O)[C@H](O)c3ccc(c(Cl)c3)Oc3cc2cc(c3O[C@@H]2O[C@H](CO)[C@@H](O)[C@H](O)[C@H]2O[C@H]2C[C@](C)(N)[C@H](O)[C@H](C)O2)Oc2ccc(cc2Cl)[C@H]1O [VANCOCIN]	pIC50	>	5.01
C=CC1=C(C(=O)O)N2C(=O)[C@@H](NC(=O)/C(=N\O)c3csc(N)n3)[C@H]2SC1 [Cefdinir (Omnicef)]	pIC50	=	5.38
CC(=O)OCC(=O)[C@H]1CC[C@H]2[C@@H]3CCC4=CC(=O)CC[C@]4(C)[C@H]3CC[C@]12C	pIC50	=	3.84
N#Cc1cc([N+](=O)[O-])c2sc(C(N)=O)[n+]([O-])c2c1	pIC50	=	4.71
OCCN1CCN(CCCN2c3ccccc3Sc3ccc(Cl)cc32)CC1 [TRILAFON]	pIC50	=	4.24
COc1ccc(CCN(C)CCCOc2ccc(S(=O)(=O)c3c(C(C)C)n(C)c4ccccc34)cc2)cc1OC	pIC50	=	4.83
COc1cc(/C=C/C(=O)CC(=O)/C=C/c2ccc(O)c(OC)c2)ccc1O [Curcumin]	pIC50	=	4.46
Cc1ccc(S(=O)(=O)C=CC#N)cc1 [Bay 11-7082]	pIC50	>	5.01
Cc1cc(N)c2ccccc2[n+]1CCCCCCCCCC[n+]1c(C)cc(N)c2ccccc21 [Dequalinium Chloride]	pIC50	>	5.01
